# Tested on: A549
# experiment: Cytotoxicity against human A549 cells after 24 to 72 hrs by haemocytometry
# Type: functional, cell-based
readout: pIC50
Reminder that pIC50 is minus the log10 of a molar concentration.

Answered examples (4):
>>> measured("COc1cc2c(cc1OC)CN(CC(=O)Nc1ccc3c(c1)/C(=C\\c1nccn1C)C(=O)N3)CC2")
5.56
>>> measured("COc1cc2c(cc1OC)CN(CC(=O)Nc1ccc3c(c1)/C(=C/c1cccs1)C(=O)N3)CC2")
6.18
>>> measured("COc1cc2c(cc1OC)CN(CC(=O)Nc1ccc3c(c1)/C(=C/c1cnc[nH]1)C(=O)N3)CC2")
5.66
>>> measured("COc1cc2c(cc1OC)CN(CC(=O)Nc1ccc3c(c1)/C(=C\\c1ccccn1)C(=O)N3)CC2")
4.70

// query Query the reported pIC50 for A549; item: COc1cc2c(cc1OC)CN(CC(=O)Nc1ccc3c(c1)CC(=O)N3)CC2
// result 4.79

// query Query the reported pIC50 for A549; item: CCCCCCCCCCCCCCCCCCOP(=O)([O-])OC1CC[N+](C)(C)CC1 [PERIFOSINE]
// result 5.38
